# System: Bacillus subtilis
# ASSAY SUMMARY: Antibacterial activity against Bacillus subtilis ATCC 23857 assessed as reduction in bacterial growth incubated for 18 to 20 hrs by Mueller Hinton broth dilution method
# Assay type: functional
# MEASUREMENT CONDITIONS: time 18-20 hrs
MIC strictly less than 30 µM = satisfied. Otherwise not satisfied.

Threshold test, MIC < 30 µM: "CC[C@H](C)[C@H](NC(=O)[C@H](CCCNC(=N)N)NC(=O)[C@H](CCCCN)NC(=O)[C@@H](CC(C)C)NC(=O)[C@@H](CC(C)C)NC(=O)CN)C(=O)N[C@@H](CCCCN)C(=O)N[C@H](C(=O)N[C@@H](CC(C)C)C(=O)N[C@@H](CC(C)C)C(N)=O)[C@@H](C)O"
satisfied

Also need "CC[C@H](C)[C@H](NC(=O)[C@H](CCCNC(=N)N)NC(=O)[C@@H](CCCCN)NC(=O)[C@H](CC(C)C)NC(=O)[C@H](CC(C)C)NC(=O)CN)C(=O)N[C@H](CCCCN)C(=O)N[C@H](C(=O)N[C@@H](CC(C)C)C(=O)N[C@@H](CC(C)C)C(N)=O)[C@@H](C)O" , thanks.
not satisfied

Moving on to the next compound: "CC[C@H](C)[C@H](NC(=O)[C@@H](CCCNC(=N)N)NC(=O)[C@H](CCCCN)NC(=O)[C@H](CC(C)C)NC(=O)[C@H](CC(C)C)NC(=O)CN)C(=O)N[C@@H](CCCCN)C(=O)N[C@@H](C(=O)N[C@@H](CC(C)C)C(=O)N[C@@H](CC(C)C)C(N)=O)[C@H](C)O"
not satisfied

Please answer likewise for "CC(C)C[C@@H](NC(=O)[C@@H](CC(C)C)NC(=O)[C@@H](CCCCN)NC(=O)[C@@H](CCCCN)NC(=O)[C@@H](Cc1c[nH]c2ccccc12)NC(=O)[C@@H](CCCNC(=N)N)NC(=O)[C@@H](CCCCN)NC(=O)[C@@H](CC(C)C)NC(=O)[C@@H](CC(C)C)NC(=O)[C@H](N)Cc1c[nH]c2ccccc12)C(N)=O"
satisfied

Lookup "CC[C@H](C)[C@H](NC(=O)[C@H](CCCNC(=N)N)NC(=O)[C@H](CCCCN)NC(=O)[C@@H](CC(C)C)NC(=O)[C@H](CC(C)C)NC(=O)CN)C(=O)N[C@@H](CCCCN)C(=O)N[C@H](C(=O)N[C@H](CC(C)C)C(=O)N[C@H](CC(C)C)C(N)=O)[C@@H](C)O"
satisfied

Okay, and "CC[C@H](C)[C@H](NC(=O)[C@H](CCCNC(=N)N)NC(=O)[C@H](CCCCN)NC(=O)[C@H](CC(C)C)NC(=O)[C@H](CC(C)C)NC(=O)CN)C(=O)N[C@@H](CCCCN)C(=O)N[C@H](C(=O)N[C@H](CC(C)C)C(=O)N[C@H](CC(C)C)C(N)=O)[C@@H](C)O" ?
satisfied

Please give the result for "CC[C@H](C)[C@H](NC(=O)[C@H](CCCNC(=N)N)NC(=O)[C@H](CCCCN)NC(=O)[C@H](CC(C)C)NC(=O)[C@H](CC(C)C)NC(=O)CN)C(=O)N[C@H](CCCCN)C(=O)N[C@@H](C(=O)N[C@@H](CC(C)C)C(=O)N[C@@H](CC(C)C)C(N)=O)[C@H](C)O" too.
not satisfied

Reference source for all entries: ChEMBL document CHEMBL5608163
